Tested on: K4 kissing-loop RNA reporter;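 further: bound reporter read as fluorescence of individual clusters on recovered sequencing chips by microscopy, with normalized cluster intensities fitted with a binding model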
Assay: apparent KD of K4 kissing-loop reporter; higher = weaker reporter binding
Conditions: Eterna round: R107; input ligand: tryptophan 2.4 mM
Known apparent KD of K4 kissing-loop reporter of a selection of sequences
All answers are understood in nM, so give the number only.

In the examples that follow, each entry is paired with its recorded apparent KD of K4 kissing-loop reporter.
GUCCCGAGUGAUGUUCGGGUCGUUCGGGAAGGAGCGCCCGCAAGGGCAGGUAGGUCGCCCGGAUCUCUCAGGUAACUGAGAGACC [#2 Same State - Arginine A Attempt #28 (HarryS)]    416
AGUACAAUGGCGGCCGCCACUCAACGCAGAUCAAAGAUCUGCGUUCACUCAGUGAUGUUGAGUGAGAGGACCGGGCCUUUGUACA [Omei KL Tryp B SS B v5]    141
AAGAGCCUCAAGAGGCAGUAUCUGCCUCAACGAGGACCGGUACGGCCGCCACUCGAAUAAUAGAGUGAUGUUCUAAGAGGCUCAA [AK8 SS Tryptophan A]    487

Any idea what apparent KD of K4 kissing-loop reporter was measured for CAUACGCAUGGAGGAUAUGAGAUUACUCAUGUCAUUUAAUAUUCUCAGUGAUGUUGAGAUUUAGGCUCAGAAGGCCAUGUGUAUG [Ex FMN B 17] ? 525

Any idea what apparent KD of K4 kissing-loop reporter was measured for GAGGAUAGCGGAAGGAGCGAGUAAUGGAGUGAUGUUCCAAUCAAUAAAACACGAUAGAGUGCUCAGGUAGGUCGCCGUGGUGGUU [Exclusion Argiie B GF 13] ? 111

Any idea what apparent KD of K4 kissing-loop reporter was measured for CGCGGCCGGCCGGAUACCAGUGACCCGCUGGAAACCGCGGGCCCAGAGUGAUGUUCGGGACACCCUUGGCAGCCGCCUGGGCGUG [#2 Same State - Theophylline B Attempt #2 (HarryS)] ? 397

* * *

Tested on: MS2 coat protein
Test: apparent KD of MS2 coat protein, switch OFF state (with FMN for OFF switches, without FMN for ON switches); designed switch direction (-1 OFF switch, 1 ON switch): 1; higher = weaker reporter binding
Conditions: FMN input: 0 or 200 uM; Eterna round: R93 (includes R88 designs)
Parameter threshold = 40 nM. Response is Fulfilled when apparent KD of MS2 coat protein meets or exceeds it, else Not fulfilled.

Examples from the recorded data:
AUAAAAUACUGUGAGGAUAUCCAUAAUAAAACAUGAGGAUCACCCAUGUGUAGAUAAUAAUAAUGGGAGAAGGCACAUAAUAAAU [SS2 M41]    Not fulfilled
AAAAGACAUGAGGAUCACCCAUGUAAAGACAUAGGAGGAUAUGUCGUGAAAAAAGACUUGGCAGAAGGCCUUUGUC [SS1 - 46]    Not fulfilled

Does apparent KD of MS2 coat protein meet or surpass 40 nM for UGAAAGGAGAGAGAGGAUAUCCAAAGGAAAACAUGAGGAUCACCCAUGUAGAAGGUAGGAAAUUGGGAGAAGGCUCAAGAAAGAG [salish99-ss2-139] ? Not fulfilled

Does apparent KD of MS2 coat protein meet or surpass 40 nM for AGGAAACAUGAGGAUCACCCAUGUAGAAAUAUGGGAGGAUAUACAAAGACGAAAGUCAAAGUAGAAGGCCUAAAAA [Mat - Same State 1 - Mod - D151] ? Fulfilled

Does apparent KD of MS2 coat protein meet or surpass 40 nM for UAAAAACAUGAGGAUCACCCAUGUAGAAACAUGGGAGGAUAUACAAAGACGAAAGUCAAAGUAGAAGGCCUAAAAU [Mat - Same State 1 - Mod - D169] ? Fulfilled

Does apparent KD of MS2 coat protein meet or surpass 40 nM for AAAAAACAUGAGGAUCACCCAUGUGAAAAAAACGCAGGAUAUCCCUUUUUUAAAUGGGAGGGAGAAGGGUGAAAAA [Nob's Hobby 14 - Jieux - Same State 1] ? Fulfilled

Hello, the source for this data is the supplement of paper PMC9170038, in case you need it.
